experiment: PAMPA (parallel artificial membrane permeability assay); type: in vitro ADME; details: PAMPA, pH 6.5
Positions of bridges follow the written chain, without caps; N, C: chain ends. Non-standard residues stand in square brackets, D forms with d. Residues, ends and D or L forms follow the SMILES beside them. ξ: configuration not given here. *: point of attachment. NEtPhe = CCN[C@@H](Cc1ccccc1)C(=O)O; NMeF = CN[C@@H](Cc1ccccc1)C(=O)O; NMeξIle = CC[C@H](C)C(NC)C(=O)O; NMeL = CN[C@@H](CC(C)C)C(=O)O; NMeV = CN[C@H](C(=O)O)C(C)C; NMeA = CN[C@@H](C)C(=O)O; Piperidide = C1CCN(*)CC1; dNMeA = CN[C@H](C)C(=O)O; ξL = CC(C)CC(N)C(=O)O; Sar = CNCC(=O)O; tBu = CC(C)(C)*
observed.property: Papp at 18 hours, 50 µM (×10⁻⁶ cm/s)

>  <compound>
CC(C)C[C@H]1C(=O)N[C@H](C(=O)N(C)[C@@H](Cc2ccccc2)C(=O)N[C@@H](C)C(=O)N2CCCCC2)CC(=O)N(C)[C@H](C)C(=O)N(C)[C@@H](Cc2ccccc2)C(=O)N(C)[C@@H](CC(C)C)C(=O)N[C@@H]([C@@H](C)O)C(=O)N(C)[C@@H](C)C(=O)N(C)[C@@H](CC(C)C)C(=O)N[C@@H](C(C)C)C(=O)N1C [DP-313] ([dNMeA][NMeF][NMeL]T[NMeA][NMeL]V[NMeL]D[NMeF]A-Piperidide; lactam N-9)

>  <reported.result>
21

$$$$
>  <compound>
CC(C)C[C@H]1C(=O)N(C)[C@@H](C)C(=O)N[C@@H]([C@@H](C)O)C(=O)N(C)[C@@H](C)C(=O)N(C)[C@@H](C(C)C)C(=O)N[C@@H](COC(C)(C)C)C(=O)N[C@H](C(=O)N2CCCCC2)CC(=O)N(C)[C@H](C)C(=O)N(C)[C@@H](Cc2ccccc2)C(=O)N[C@@H](C)C(=O)N(C)[C@@H](C)C(=O)N[C@@H](Cc2ccccc2)C(=O)N1C [DP-409] ([dNMeA][NMeF]A[NMeA]F[NMeL][NMeA]T[NMeA][NMeV]S(tBu)D-Piperidide; lactam N-12)

>  <reported.result>
13

$$$$
>  <compound>
CC[C@H](C)C1C(=O)N(C)[C@@H](Cc2ccccc2)C(=O)N[C@H](C(=O)N2CCCCC2)CC(=O)N(C)CC(=O)NC(CC(C)C)C(=O)N(C)[C@@H](Cc2ccccc2)C(=O)N(C)[C@@H](CC(C)C)C(=O)N[C@@H](C)C(=O)N(C)[C@@H](C(C)C)C(=O)N(C)[C@@H](C)C(=O)N[C@@H]([C@@H](C)O)C(=O)N(C)CC(=O)N1C (stereo partly drawn) [DP-64] ([Sar][ξL][NMeF][NMeL]A[NMeV][NMeA]T[Sar][NMeξIle][NMeF]D-Piperidide; lactam N-12)

>  <reported.result>
24

$$$$
>  <compound>
CCN1C(=O)CN(C)C(=O)[C@H]([C@@H](C)O)NC(=O)[C@H](C)N(C)C(=O)C[C@@H](C(=O)N2CCCCC2)NC(=O)[C@H](C(C)C)N(C)C(=O)[C@H](C)NC(=O)[C@H](CC(C)C)N(C)C(=O)[C@@H]2CCCN2C(=O)[C@H](CC(C)C)N(C)C(=O)[C@H](Cc2ccccc2)N(C)C(=O)[C@@H]1Cc1ccccc1 [DP-542] ([NMeA]T[Sar][NEtPhe][NMeF][NMeL]P[NMeL]A[NMeV]D-Piperidide; lactam N-11)

>  <reported.result>
22

$$$$
>  <compound>
CC(C)C[C@H]1C(=O)NCC(=O)N[C@H](C(=O)N(C)[C@@H](Cc2ccccc2)C(=O)N(C)[C@@H](Cc2ccccc2)C(=O)N[C@@H](C)C(=O)N2CCCCC2)CC(=O)N[C@H](C(C)C)C(=O)N[C@@H]([C@@H](C)O)C(=O)N(C)[C@@H](C)C(=O)N(C)[C@@H](Cc2ccccc2)C(=O)N[C@@H](C(C)C)C(=O)N(C)[C@@H](Cc2ccccc2)C(=O)N1C [DP-401] ([dV]T[NMeA][NMeF]V[NMeF][NMeL]GD[NMeF][NMeF]A-Piperidide; lactam N-9)

>  <reported.result>
8.6

$$$$
